Target or system: T1, 4H3697-AA
T1 chain: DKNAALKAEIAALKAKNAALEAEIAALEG
Method: two-hybrid library CCmax;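 further: natural log of median RNA to DNA barcode read ratio; higher means stronger binding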
Test settings: mean of both orientations
Observed property: interaction score

binder="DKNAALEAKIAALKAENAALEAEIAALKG [4H3410-AA]" result_number=-0.574

[a] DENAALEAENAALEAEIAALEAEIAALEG [4H1153-AA]
[b] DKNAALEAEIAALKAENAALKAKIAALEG [4H3165-AA]
Query: Of a versus b , which is the one with smaller reported interaction score? Selection: enter the item's label.
Response: a
